Value source: the supplement of paper PMC9112550

- Tested on: Escherichia coli TOP10;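 note: peptides expressed intracellularly from a pBAD plasmid library in pooled LB shake-flask culture, induced with 0.3% L-arabinose, DNA abundance read by NGS, three biological replicates, DESeq2 with apeglm shrinkage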
- Method Summary: shrunken log2 fold change of peptide-encoding DNA abundance (4.5 h post-induction vs induction); higher = less antimicrobial activity (less host growth inhibition)
- Details: time post-induction: 4.5 h; library: site-saturation at positions 5, 18, 19, 20
So I've got a bunch of sequences here, and I need their shrunken log2 fold change values.
# output: bare number, no unit

Need shrunken log2 fold change of `RRIRERPPRLPRPRPRPVPDPRP` , thanks.
0.268

What value of shrunken log2 fold change has been recorded for this entry: `RRIRGRPPRLPRPRPRPRKDPRP`
0.726

May I ask what shrunken log2 fold change has been recorded for `RRIRCRPPRLPRPRPRPSLYPRP` ?
-0.518

Query (sequence): `RRIRLRPPRLPRPRPRPCRAPRP` ; field requested: shrunken log2 fold change
0.146

For the sequence shown here, `RRIRDRPPRLPRPRPRPINEPRP` , give the reported shrunken log2 fold change.
-0.144

Look at this sequence and give its reported shrunken log2 fold change. `RRIRLRPPRLPRPRPRPYWYPRP`
-0.542

Any idea what shrunken log2 fold change was measured for `RRIRTRPPRLPRPRPRPRRKPRP` ?
0.0652

Which shrunken log2 fold change value is on record for `RRIRTRPPRLPRPRPRPEMCPRP` ?
-0.00146

Looking for the measured shrunken log2 fold change of `RRIRWRPPRLPRPRPRPRNNPRP` , can you help?
-0.162

# query: shrunken log2 fold change of entry `RRIRTRPPRLPRPRPRPWFMPRP`
-0.364

Name the recorded shrunken log2 fold change for `RRIRHRPPRLPRPRPRPTNDPRP` .
-0.311

Would you mind telling me what shrunken log2 fold change value was observed for `RRIRHRPPRLPRPRPRPQTVPRP` ?
-0.495

Recorded shrunken log2 fold change for `RRIRVRPPRLPRPRPRPEEAPRP` , please?
0.26

Data request, read-out shrunken log2 fold change, for `RRIRCRPPRLPRPRPRPTTCPRP`
-0.293

// shrunken log2 fold change lookup, key: `RRIRYRPPRLPRPRPRPFIVPRP`
-0.173
